Every entry's value here was drawn from patent US20040133357A1.

Give measured hAB1 Kd/Variant Kd for each item. Keep answers brief.
Target: T1, purified recombinant human VEGF165 (human, UniProt P15692 27-191, glycosylated)
T1 construct: mature; Bought from Calbiochem; also called VEGF protein (Calbiochem); homodimeric VEGF protein
T1 sequence (P15692 other isoform, or with tags, fused parts or gaps limits assumed): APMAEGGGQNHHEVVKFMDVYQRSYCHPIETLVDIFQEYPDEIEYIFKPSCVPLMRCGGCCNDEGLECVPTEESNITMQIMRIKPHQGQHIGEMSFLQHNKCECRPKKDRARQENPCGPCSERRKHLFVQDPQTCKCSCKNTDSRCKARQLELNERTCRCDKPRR
Assay: SPR (BIAcore), purified scFv over VEGF immobilized on CM5 chip, 25 C
Protocol: Antibody fragments in the format of single chain were expressed as described below and purified. The measurement was done by measuring the change of SPR units (y-axis) vs time (x-axis) when a purified antibody binds its antigen (VEGF) immobilized on the CM5 biochip at 25° C. Kd values were calculated by the […]. BIAcore Biosensor Assay was used to determine antibody affinity. […] Each sensorgram was recorded and normalized to a PBS base line.
Just the number, please, no unit attached.

Please look up its hAB1 Kd/Variant Kd: hAB3 (scFv, Single chain format; not shown: HA-His6 tag at C-terminus) scFv: EVQLVQSGGGVVQPGGSLRLSCAASGYTFTNYGMNWIRQAPGKGLEWVGWINTYTGEPTYAADFKRRVTFSLDTSKSTAYLQLNSLRAEDTAVYYCAKYPHYYGSSHWYFDVWGQGTLVTVSSGGGGSGGGGSGGGGSDIQMTQSPSSLSASVGDRVTITCSASQDISNYLNWYQQKPGKAPKVLIYFTSSLHSGVPSRFSGSGSGTDFTLTISSLQPEDFATYYCQQYSTVPWTFGQGTKVEIK
4.2

// repeat for hAB10 (scFv, Single chain format; not shown: HA-His6 tag at C-terminus) scFv: EVQLVESGGGLVQPGGSLRLSCAASGYTFTNYGMNWVRQAPGKGLEWVGWINTYTGEPTYAADFKRRFTFSLDTSKSTAYLQMNSLRAEDTAVYYCAKYPYYYGTSHWYFDVWGQGTLVTVSSGGGGSGGGGSGGGGSDIQMTQSPSSLSASVGDRVTITCSASQDISNYLNWYQQKPGKAPKVLIYFTSSLHSGVPSRFSGSGSGTDFTLTISSLQPEDFATYYCQQYSTVPWTFGQGTKVEIK and report
6.3

// repeat for hAB5 (scFv, Single chain format; not shown: HA-His6 tag at C-terminus) scFv: EVQLVQSGGGVVQPGGTLRLTCAASGYTFTNYGMNWVRQAPGKGLEWVGWINTYTGEPTYAADFKRRVTFSLDTSKSTAYLQMNSLRAEDTAVYYCAKYPHYYGSSHWYFDVWGQGTLVTVSSGGGGSGGGGSGGGGSDIQMTQSPSSLSASVGDRVTITCSASQDISNYLNWYQQKPGKAPKVLIYFTSSLHSGVPSRFSGSGSGTDFTLTISSLQPEDFATYYCQQYSTVPWTFGQGTKVEIK and report
2.2

// repeat for hAB9 (scFv, Single chain format; not shown: HA-His6 tag at C-terminus) scFv: EVQLVQSGGGVVQPGGSLRLSCAASGYTFTNYGMNWVRQAPGKGLEWVGWINTYTGEPTYAADFKRRFTFSLDTSKSTAYLQMNSLRAEDTAVYYCAKYPYYYGRSHWYFDVWGQGTLVTVSSGGGGSGGGGSGGGGSDIQLTQSPSSLSASAGDRVTISCSASQDISNYLNWYQQKPGKAPQLLIYFTSSLHSGVPSRFSGSGSGTDFTLTISSLQPEDFATYYCQQYSTVPWTFGQGTKVEIK and report
2.7

// repeat for hAB11 (scFv, Single chain format; not shown: HA-His6 tag at C-terminus) scFv: EVQLVESGGGLVQPGGSLRLSCAASGYTFTNYGMNWVRQAPGKGLEWVGWINTYTGEPTYAADFKRRFTFSLDTSKSTAYLQMNSLRAEDTAVYYCAKYPHYYGRSHWYFDVWGQGTLVTVSSGGGGSGGGGSGGGGSDIQMTQSPSSLSASVGDRVTITCSASQDISNYLNWYQQKPGKAPKVLIYFTSSLHSGVPSRFSGSGSGTDFTLTISSLQPEDFATYYCQQYSTVPWTFGQGTKVEIK and report
2.6

// repeat for hAB12 (scFv, Single chain format; not shown: HA-His6 tag at C-terminus) scFv: EVQLVESGGGLVQPGGSLRLSCAASGYTFTNYGMNWVRQAPGKGLEWVGWINTYTGEPTYAADFKRRFTFSLDTSKSTAYLQMNSLRAEDTAVYYCAKYPYYYGRSHWYFDVWGQGTLVTVSSGGGGSGGGGSGGGGSDIQMTQSPSSLSASVGDRVTITCSASQDISNYLNWYQQKPGKAPKVLIYFTSSLHSGVPSRFSGSGSGTDFTLTISSLQPEDFATYYCQQYSTVPWTFGQGTKVEIK and report
9.2
